- Assayed Target: HIV protease (Human immunodeficiency virus type 1 group M subtype B, UniProt P04585)
- Assay Text: biochemical
Response field label takes Y when Ki is strictly below 1 nM and N in all other cases.

Compound	Class Assignment
CCCN[C@@H](Cc1cccc2ccccc12)C(=O)NCCC[C@@H](CO)N(CC(C)C)S(=O)(=O)c1ccc(N)cc1 [Example 22]	N
CC(C)CN([C@H](CO)CCCCNC(=O)[C@@H](N)Cc1ccc2ccccc2c1)S(=O)(=O)c1ccc(N)cc1 [Example 49]	N
COC(=O)N[C@@H](Cc1ccccc1-c1cccc(F)c1)C(=O)NCCCC[C@@H](CO)N(CC(C)C)S(=O)(=O)c1ccc(N)cc1 [Example 52]	Y
CC(C)CN([C@H](CO)CCCCNC(=O)[C@H](Cc1ccc2ccccc2c1)NC(=O)N1CCOCC1)S(=O)(=O)c1ccc(N)cc1 [Example 33]	Y
CC(C)CN([C@H](CO)CCCCNC(=O)[C@H](Cc1ccc2ccccc2c1)NC(=O)C1CCCCC1)S(=O)(=O)c1ccc(N)cc1 [Example 42]	N
CC(C)CN([C@H](CO)CCCCNC(=O)[C@H](Cc1cccc2ccccc12)NC(=O)N1CCOCC1)S(=O)(=O)c1ccc2c(c1)OCO2 [Example 66]	N
CC(C)CN([C@H](CO)CCCCNC(=O)[C@H](Cc1cccc2ccccc12)NC(=O)N1CCOCC1)S(=O)(=O)c1ccc(N)c(Cl)c1 [Example 44]	Y
COC(=O)N[C@H](C(=O)NCCCC[C@@H](CO)N(CC(C)C)S(=O)(=O)c1ccc(N)cc1)C(c1ccccc1)c1ccccc1 [Example 34]	Y
CC(C)CN([C@H](CO)CCCCNC(=O)[C@H](Cc1ccc2ccccc2c1)NC(=O)C1CCCC1)S(=O)(=O)c1ccc(N)cc1 [Example 60]	N
CCOC(=O)N[C@@H](Cc1cccc2ccccc12)C(=O)NCCC[C@@H](CO)N(CC(C)C)S(=O)(=O)c1ccc(N)cc1 [Example 18]	N
CC(C)CN([C@H](CO)CCCCNC(=O)[C@H](Cc1cccc2ccccc12)NC(=O)N1CCOCC1)S(=O)(=O)c1ccc(N)cc1 [Example 32]	Y
COC(=O)N[C@@H](Cc1ccccc1-c1cccc(F)c1)C(=O)NCCCC[C@@H](CO)N(CC(C)C)S(=O)(=O)c1ccc(N)c(Cl)c1 [Example 57]	N
COC(=O)N[C@@H](Cc1cccc2ccccc12)C(=O)NCCCC[C@@H](CO)N(CC(C)C)S(=O)(=O)c1ccc(N)cc1 [Example 28]	N
CC(C)CN([C@H](CO)CCCCNC(=O)[C@H](Cc1ccc2ccccc2c1)NC(=O)C1CC1)S(=O)(=O)c1ccc(N)cc1 [Example 47]	N
COC(=O)N[C@@H](Cc1ccccc1-c1ccc(OC)cc1)C(=O)NCCCC[C@@H](CO)N(CC(C)C)S(=O)(=O)c1ccc(OC)cc1 [Example 36]	N
CC(C)CN([C@H](CO)CCCNC(=O)[C@H](Cc1cccc2ccccc12)NC(=O)N1CCOCC1)S(=O)(=O)c1ccc(N)cc1 [Example 4]	N
CC(C)CN([C@H](CO)CCCNC(=O)[C@@H](N)Cc1cccc2ccccc12)S(=O)(=O)c1ccc(N)cc1 [Example 8]	N
CC(C)CN([C@H](CO)CCCCNC(=O)[C@@H](NC(=O)N1CCOCC1)C(c1ccccc1)c1ccccc1)S(=O)(=O)c1ccc(N)cc1 [Example 40]	Y
COC(=O)N[C@@H](Cc1ccccc1-c1cccc(F)c1)C(=O)NCCCC[C@@H](CO)N(CC(C)C)S(=O)(=O)c1ccc(F)c(N)c1 [Example 56]	N

###

- Assayed Target: HIV protease (Human immunodeficiency virus type 1 group M subtype B, UniProt P04585)
- Assay Text: biochemical
pKi: −log10 of the molar value.
Measurement Type: pKi

> print(dat)
                                   compound  relation  meas.value
1  COC(=O)NC(Cc1ccccc1-c1ccccc1)C(=O)NCCCC(CO)N(CC(C)C)S(=O)(=O)c1ccc(N)cc1 (stereo not shown) [Example 3]         =        8.62
2  COC(=O)C(=O)N[C@@H](Cc1cccc2ccccc12)C(=O)NCCC[C@@H](CO)N(CC(C)C)S(=O)(=O)c1ccc(N)cc1 [Example 11]         =        8.30
3  CCCN[C@@H](Cc1ccc2ccccc2c1)C(=O)NCCCC[C@@H](CO)N(CC(C)C)S(=O)(=O)c1ccc(N)cc1 [Example 64]         =        8.34
4  COC(=O)N[C@H](C(=O)NCCCC[C@@H](CO)N(CC(C)C)S(=O)(=O)c1ccc(F)cc1F)C(c1ccccc1)c1ccccc1 [Example 80]         >        8.42

###

- Assayed Target: HIV protease (Human immunodeficiency virus type 1 group M subtype B, UniProt P04585)
- Assay Text: biochemical
pKi: −log10 of the molar value.
Measurement Type: pKi

> print(dat)
                               given.smiles  measurement.type  relation  meas.value
1  COc1ccc(-c2ccccc2C[C@H](NC(=O)N2CCOCC2)C(=O)NCCCC[C@@H](CO)N(CC(C)C)S(=O)(=O)c2ccc(N)cc2)cc1               pKi         =        9.27
2  CC(C)CN([C@H](CO)CCCCNC(=O)[C@@H](NC(=O)c1ccc[nH]1)C(c1ccccc1)c1ccccc1)S(=O)(=O)c1ccc(N)cc1               pKi         >        8.42
3  CC(C)CN([C@H](CO)CCCCNC(=O)[C@@H](NC(=O)c1ccc(O)c([N+](=O)[O-])c1)C(c1ccccc1)c1ccccc1)S(=O)(=O)c1ccc(N)cc1               pKi         >        8.42
4  CC(C)CN([C@H](CO)CCCCNC(=O)[C@H](Cc1ccc2ccccc2c1)NC(=O)N(C)C)S(=O)(=O)c1ccc(F)c(N)c1               pKi         >        8.42
5  CC(C)CN([C@H](CO)CCCCNC(=O)[C@@H](NC(=O)c1ccc(N)nc1)C(c1ccccc1)c1ccccc1)S(=O)(=O)c1ccc(N)cc1               pKi         >        8.42
6  CC(C)CN([C@H](CO)CCCNC(=O)[C@H](Cc1cccc2ccccc12)NC(=O)C1CCCCC1)S(=O)(=O)c1ccc(N)cc1               pKi         =        8.64
7  CC(C)CN([C@H](CO)CCCNC(=O)[C@H](Cc1cccc2ccccc12)NC(=O)C1CCCC1)S(=O)(=O)c1ccc(N)cc1               pKi         =        8.70
8  CC(C)CN([C@H](CO)CCCCNC(=O)[C@H](Cc1ccc2ccccc2c1)NC(=O)C(C)(C)C)S(=O)(=O)c1ccc(N)cc1               pKi         =        9.09
9  COCCOC(=O)N[C@@H](Cc1cccc2ccccc12)C(=O)NCCC[C@@H](CO)N(CC(C)C)S(=O)(=O)c1ccc(N)cc1               pKi         =        8.43

Origin of the recorded values: patent US6632816B1
